Please respond with reported Ka for every item in the list.
# Target System: penicillin detector of the Beta-Star® Test (Bacillus licheniformis)
# Construct: purchased UCB, Belgium (BetaSTAR kit)
# Sequence (P12287 346-601): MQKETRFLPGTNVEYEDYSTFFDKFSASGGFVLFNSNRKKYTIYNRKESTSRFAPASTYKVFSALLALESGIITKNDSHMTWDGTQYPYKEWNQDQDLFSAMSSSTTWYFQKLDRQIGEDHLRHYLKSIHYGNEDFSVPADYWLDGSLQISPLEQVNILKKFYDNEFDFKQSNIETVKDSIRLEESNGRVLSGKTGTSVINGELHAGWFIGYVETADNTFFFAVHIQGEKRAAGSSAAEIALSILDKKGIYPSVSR
# Method Notes: Ka (apparent second-order rate constant for acyl enzyme formation), calculated using the penicillin detector of the Beta-Star Test
# Assay type: binding
# Applied Conditions: Ka=k2/K
# From the text: The particular mode of conjugation claimed in the present invention guarantees to maintain kinetic parameters (Km, Ki, kcat and Ka=k2/K, where Km is the enzyme Michaelis-Menten constant, Ki is the inhibitor-enzyme complex dissociation constant, kcat the catalytic constant and Ka the apparent second-order rate constant for acyl enzyme formation respectively) toward β-lactamases and penicillin detectors, which are essentially the same as those of common penicillins. […]

Entry CC(=O)C1CCC2C1CC(OC(C)Cc1ccc(CC(=O)NC3C(=O)N4C3SC(C)(C)C4C(=O)O)cc1)C1C3CCC(=O)C=C3CCC21 (stereo not shown) [Conjugate 2] ; Ka = 4.6 ± 3.0 × 10^−6 L.M^−1

Entry CC1(C)SC2C(NC(=O)Cc3ccc(CC(=O)OC4CCC5C6CCC7=CC(=O)CCC7(C)C6CCC45C)cc3)C(=O)N2C1C(=O)O (stereo not shown) [Conjugate 31] ; Ka = 4.1 ± 3.2 × 10^−6 L.M^−1

Entry CC1(C)SC2C(NC(=O)Cc3ccc(CC(=O)OC4CCC5C6CCc7cc(O)ccc7C6CCC45C)cc3)C(=O)N2C1C(=O)O (stereo not shown) [Conjugate 30] ; Ka = 3.8 ± 2.9 × 10^−6 L.M^−1

Entry CC1(C)SC2C(NC(=O)Cc3ccc(CC(=O)OC4CCC5C6CCc7cc(O)ccc7C6CCC45C)cc3)C(=O)N2C1C(=O)O (stereo not shown) [Conjugate 32] ; Ka = 4.8 ± 3.5 × 10^−6 L.M^−1

---

Please respond with reported Ki for every item in the list.
# Target System: β-lactamase of Enterobacter cloacae P99 (Enterobacter cloacae)
# Construct: Class C β-lactamase as that extracted from Enterobacter cloacae P99
# Sequence (P05364 21-381): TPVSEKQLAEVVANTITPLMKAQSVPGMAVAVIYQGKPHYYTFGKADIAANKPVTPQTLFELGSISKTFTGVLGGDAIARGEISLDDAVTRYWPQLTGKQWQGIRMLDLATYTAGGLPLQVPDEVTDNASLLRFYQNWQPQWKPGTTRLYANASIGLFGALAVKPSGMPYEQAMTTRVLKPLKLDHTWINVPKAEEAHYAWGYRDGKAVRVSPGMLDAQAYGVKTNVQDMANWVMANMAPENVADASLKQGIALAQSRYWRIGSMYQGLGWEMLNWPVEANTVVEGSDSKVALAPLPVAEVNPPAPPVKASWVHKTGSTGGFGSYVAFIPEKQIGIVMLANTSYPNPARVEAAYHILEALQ
# Method Notes: Ki of conjugates, calculated using the β-lactamase of Enterobacter cloacae P99
Please state the figure in nM; there is no need to write the unit.

Result for Cc1onc(-c2ccc(OC(=O)CCC(=O)OC3CCC4C5CCC6=CC(=O)CCC6C5CCC34C)cc2)c1C(=O)NC1C(=O)N2C1SC(C)(C)C2C(=O)O (centres unmarked) [Conjugate 19] , tested on β-lactamase of Enterobacter cloacae P99 (Enterobacter cloacae), Ki: 21

Result for Cc1onc(-c2ccc(C(=O)NCCCOC3CCC4C5CCC6=CC(=O)CCC6(C)C5CCC34C)cc2)c1C(=O)NC1C(=O)N2C1SC(C)(C)C2C(=O)O (centres unmarked) [Conjugate 16] , tested on β-lactamase of Enterobacter cloacae P99 (Enterobacter cloacae), Ki: 26

Result for Cc1onc(-c2ccc(OCCC(=O)OC3CCC4C5CCC6=CC(=O)CCC6(C)C5CCC34C)cc2)c1C(=O)NC1C(=O)N2C1SC(C)(C)C2C(=O)O (centres unmarked) [Conjugate 24] , tested on β-lactamase of Enterobacter cloacae P99 (Enterobacter cloacae), Ki: 21

Result for Cc1onc(-c2ccc(OCCC(=O)OC3CCC4C5CCC6=CC(=O)CCC6C5CCC34C)cc2)c1C(=O)NC1C(=O)N2C1SC(C)(C)C2C(=O)O (centres unmarked) [Conjugate 25] , tested on β-lactamase of Enterobacter cloacae P99 (Enterobacter cloacae), Ki: 28

Result for CC(=O)C1CCC2C3CCC4=CC(=O)CCC4(C)C3C(OC(=O)CCOc3ccc(-c4noc(C)c4C(=O)NC4C(=O)N5C4SC(C)(C)C5C(=O)O)cc3)CC12C (centres unmarked) [Conjugate 28] , tested on β-lactamase of Enterobacter cloacae P99 (Enterobacter cloacae), Ki: 26

Result for Cc1onc(-c2ccc(C(=O)OC3CCC4C5CCC6=CC(=O)CCC6(C)C5CCC34C)cc2)c1C(=O)NC1C(=O)N2C1SC(C)(C)C2C(=O)O (centres unmarked) [Conjugate 6] , tested on β-lactamase of Enterobacter cloacae P99 (Enterobacter cloacae), Ki: 22

Result for CC(=O)C1CCC2C3CCC4=CC(=O)CCC4(C)C3C(OCCOc3ccc(-c4noc(C)c4C(=O)NC4C(=O)N5C4SC(C)(C)C5C(=O)O)cc3Cl)CC12C (centres unmarked) [Conjugate 13] , tested on β-lactamase of Enterobacter cloacae P99 (Enterobacter cloacae), Ki: 20

Result for Cc1onc(-c2ccc(OCCC(=O)OC3CCC4C5CCc6cc(O)ccc6C5CCC34C)cc2)c1C(=O)NC1C(=O)N2C1SC(C)(C)C2C(=O)O (centres unmarked) [Conjugate 29] , tested on β-lactamase of Enterobacter cloacae P99 (Enterobacter cloacae), Ki: 21

Result for Cc1onc(-c2ccc(OCCOC3CCC4C5CCc6cc(O)ccc6C5CCC34C)c(Cl)c2)c1C(=O)NC1C(=O)N2C1SC(C)(C)C2C(=O)O (centres unmarked) [Conjugate 10] , tested on β-lactamase of Enterobacter cloacae P99 (Enterobacter cloacae), Ki: 14

Result for Cc1onc(-c2ccc(NC(=O)CCOC3CCC4C5CCC6=CC(=O)CCC6C5CCC34C)cc2)c1C(=O)NC1C(=O)N2C1SC(C)(C)C2C(=O)O (centres unmarked) [Conjugate 21] , tested on β-lactamase of Enterobacter cloacae P99 (Enterobacter cloacae), Ki: 30

Result for CC(=O)C1CCC2C3CCC4=CC(=O)CCC4(C)C3C(OC(=O)c3ccc(-c4noc(C)c4C(=O)NC4C(=O)N5C4SC(C)(C)C5C(=O)O)cc3)CC12C (centres unmarked) [Conjugate 7] , tested on β-lactamase of Enterobacter cloacae P99 (Enterobacter cloacae), Ki: 19
